study.target: UniProt P31389
assay.notes: Histamine H1 receptor antagonistic activity in guinea pig ileum […]
Assay type: functional, tissue-based
condition.summary: read-out: pA2 (converted)
assay.endpoint: Kb (µM)
Give the quantity in µM, number only.

Query string: Could you tell me which Kb is on file for "COc1ccc(CN(CCN(C)CCCCCCNS(=O)(=O)c2cccc3c(N(C)C)cccc23)c2ccccn2)cc1" ?
Result string: 0.0178

Query string: Could you tell me which Kb is on file for "COc1ccc(CN(CCN(C)CCCCCCNC(=O)c2ccc(C(=O)O)c(-c3c4ccc(=O)cc-4oc4cc(O)ccc34)c2)c2ccccn2)cc1" ?
Result string: 0.0263

Query string: Could you tell me which Kb is on file for "COc1ccc(CN(CCN(C)CCNC(=O)c2ccc(C(=O)O)c(-c3c4ccc(=O)cc-4oc4cc(O)ccc34)c2)c2ccccn2)cc1" ?
Result string: 0.145

Query string: Could you tell me which Kb is on file for "COc1ccc(CN(CCN(C)CCNC(=O)c2ccc(-c3c4ccc(=O)cc-4oc4cc(O)ccc34)c(C(=O)O)c2)c2ccccn2)cc1" ?
Result string: 0.0692

Query string: Could you tell me which Kb is on file for "COc1ccc(CN(CCN(C)CCCCCCNC(=O)c2ccc(-c3c4ccc(=N)cc-4oc4cc(N)ccc34)c(C(=O)O)c2)c2ccccn2)cc1" ?
Result string: 0.0263

Query string: Could you tell me which Kb is on file for "COc1ccc(CN(CCN(C)CCCCCCNC(=O)c2ccc(-c3c4ccc5cc(O)ccc5c4oc4c3ccc3cc(=O)ccc34)c(C(=O)O)c2)c2ccccn2)cc1" ?
Result string: 0.0363

Query string: Could you tell me which Kb is on file for "COc1ccc(CN(CCN(C)CCCCCCNC(=O)CCCCCNc2ccc([N+](=O)[O-])c3nonc23)c2ccccn2)cc1" ?
Result string: 0.00195

---

For each entry below, report its Kb value.
study.target: Histamine H1 receptor (Cavia porcellus)
Sequence (P31389 whole entry): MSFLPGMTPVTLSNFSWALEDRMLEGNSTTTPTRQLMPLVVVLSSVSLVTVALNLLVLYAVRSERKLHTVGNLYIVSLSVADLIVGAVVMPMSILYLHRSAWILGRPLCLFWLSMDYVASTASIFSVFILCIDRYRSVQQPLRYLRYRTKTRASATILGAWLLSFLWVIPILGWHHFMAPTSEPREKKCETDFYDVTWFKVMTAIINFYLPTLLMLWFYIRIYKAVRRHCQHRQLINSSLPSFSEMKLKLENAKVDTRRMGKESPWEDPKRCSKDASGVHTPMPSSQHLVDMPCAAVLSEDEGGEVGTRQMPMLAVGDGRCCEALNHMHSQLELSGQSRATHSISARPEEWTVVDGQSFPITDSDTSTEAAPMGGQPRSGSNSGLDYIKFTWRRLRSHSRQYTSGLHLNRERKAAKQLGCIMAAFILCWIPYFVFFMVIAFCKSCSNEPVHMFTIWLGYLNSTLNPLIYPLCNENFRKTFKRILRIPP
assay.notes: Histamine H1 receptor antagonistic activity in guinea pig ileum […]
Assay type: functional, tissue-based
condition.summary: read-out: pA2 (converted)
Give the quantity in nM, number only.

Query string: Could you tell me which Kb is on file for "COc1ccc(CN(CCN(C)CCNc2ccc([N+](=O)[O-])c3n[o+][n-]c23)c2ccccn2)cc1" ?
Result string: 4.68

Query string: Could you tell me which Kb is on file for "COc1ccc(CN(CCN(C)CCCCNC(=O)c2ccc(-c3c4ccc(=O)cc-4oc4cc(O)ccc34)c(C(=O)O)c2)c2ccccn2)cc1" ?
Result string: 4.47

Query string: Could you tell me which Kb is on file for "COc1ccc(CN(CCN(C)CCCCCCN)c2ccccn2)cc1" ?
Result string: 12.9

Query string: Could you tell me which Kb is on file for "CNCCN(Cc1ccc(OC)cc1)c1ccccn1" ?
Result string: 6.61

---

study.target: Histamine H1 receptor (Homo sapiens)
condition.summary: U-373MG ATCC
Description: Histamine H1 receptor antagonistic activity in U373MG human glioblastoma cells using fluorescence-labeled H1 as radioligand in Ca+2 assay
For each entry below, report its pKB value.
Lab note: record the figure alone, no unit after it.

Query string: Could you tell me which pKB is on file for "COc1ccc(CN(CCN(C)CCCCNC(=O)c2ccc(-c3c4ccc(=O)cc-4oc4cc(O)ccc34)c(C(=O)O)c2)c2ccccn2)cc1" ?
Result string: 8.47

Query string: Could you tell me which pKB is on file for "COc1ccc(CN(CCN(C)CCCCCCNS(=O)(=O)c2cccc3c(N(C)C)cccc23)c2ccccn2)cc1" ?
Result string: 7.76

Query string: Could you tell me which pKB is on file for "COc1ccc(CN(CCN(C)CCN)c2ccccn2)cc1" ?
Result string: 7.84

Query string: Could you tell me which pKB is on file for "COc1ccc(CN(CCN(C)CCCCCCN)c2ccccn2)cc1" ?
Result string: 8.03

Query string: Could you tell me which pKB is on file for "COc1ccc(CN(CCN(C)CCCCCCNC(=O)CCCCCNc2ccc([N+](=O)[O-])c3nonc23)c2ccccn2)cc1" ?
Result string: 9.05

Query string: Could you tell me which pKB is on file for "COc1ccc(CN(CCN(C)CCNC(=O)c2ccc(-c3c4ccc(=O)cc-4oc4cc(O)ccc34)c(C(=O)O)c2)c2ccccn2)cc1" ?
Result string: 7.21

Query string: Could you tell me which pKB is on file for "COc1ccc(CN(CCN(C)CCCCCCCCN)c2ccccn2)cc1" ?
Result string: 8.06

Query string: Could you tell me which pKB is on file for "COc1ccc(CN(CCN(C)CCCCCCCCNC(=O)c2ccc(C(=O)O)c(-c3c4ccc(=O)cc-4oc4cc(O)ccc34)c2)c2ccccn2)cc1" ?
Result string: 8.53
